test system: HT29 colon; assay: NCI-60 one-dose screen, 48 h (100 = growth as untreated, 0 = no growth, -100 = all killed); settings: 10 µM unless noted
This is part of a sample that, as a whole, favours compounds with a hit. Of some 83,000 tested, about 20% had one in any assay. Calls of active or inactive are those of the source. Rule for the calls: active = growth percent below 10; inactive = the rest.
Reported endpoint: growth

O=C(N=c1n(-c2ccccc2)nc2n1CCN2C1=NCCN1C(=O)c1ccc(Cl)cc1)c1ccc(Cl)cc1: 59.7% (inactive)
CC(C)[C@H]1COC(=O)N1[C@@H]1C(=O)N([C@@H](CCC(=O)N2CCN(C3CCCC3)CC2)C(=O)N[C@@H]2CCCc3ccccc32)[C@@H]1/C=C/c1cccc(Cl)c1: 13% (inactive)
O=c1[nH]cnc2c1ccn2C1OC(CO)C(O)C1O (centres undefined): 65.9% (inactive)

Now consider the entry below.
Lookup: Please give the documented growth of CC1(C)C(=O)/C(=C\c2cccnc2)C[C@]2(C)[C@H]3CC[C@@H]4[C@H]5[C@H](C(=O)/C=C/c6cccnc6)CC[C@]5(C(=O)O)CC[C@@]4(C)[C@]3(C)CC[C@@H]12
Found: -72% [100 µM] (active)

====

Tested on: RPMI-8226 leukemia
Experiment: NCI-60 one-dose screen, 48 h (100 = growth as untreated, 0 = no growth, -100 = all killed)
Conditions: 10 µM unless noted
Procedure: Growth inhibition of the RPMI-8226 human tumor cell line is measured as a screen for anti-cancer activity. Cells are grown in 96 well plates and exposed to the test compound for 48 hours. Compounds are tested at a single concentration, which is 10^-5 M for most compounds. The reported endpoint is percent growth (GI% or GIPRCNT), where numbers from 0 - 100% represent growth inhibition, and numbers from -100% - 0 represent cell death. For example, a value of 40 represents 60% growth inhibition. […]
About 83,000 compounds went through this panel and 20% of them were active in at least one assay; those are over-represented in the sample as a whole. Calls of active or inactive are those of the source. How the source made its calls: active means growth percent below 10; inactive means the rest.
growth: recorded values

O=C(O)c1cn(C2CC2)c2cc(N3CCN(Cc4c(O)ccc5ccccc45)CC3)c(F)cc2c1=O: 73.5% (inactive)
O=c1cc(-c2ccccc2)oc2cc(OCc3cn(Cc4ccc(F)cc4)nn3)cc(O)c12: 93.7% [100 µM] (inactive)

Lookup: Please give the documented growth of CC1(C)C(=NO)C(C)(C)C1=NO
Found: 76.2% (inactive)

====

test system: NCI-H522 lung; assay: NCI-60 one-dose screen, 48 h; conditions: 10 µM unless noted
About 83,000 compounds went through this panel and 20% of them were active in at least one assay; those are over-represented in the sample as a whole. Active and inactive are the calls of the source. How the source made its calls: active means growth percent below 10; inactive means the rest.
The reply should be one of these categories: active, inactive

C[n+]1c2ccccc2nc2c(N)cc(N)cc21: inactive
COc1cc2c(c(OC)c1OC)-c1ccc(NNC(N)=S)c(=O)cc1[C@@H](NC(C)=O)CC2: active
C1=C[C@H]2O[C@@H]1c1ccc3[nH]ccc3c12: inactive
COc1cc(NCc2ccccc2O)c2ncccc2c1: inactive
O=C1CC(c2ccccc2)Cc2nc3ccc(Cl)cc3cc21 (centres undefined): active
Cc1ccc(S(=O)(=O)n2cc(C(=O)C(=O)N3CCCCC3)c3ccccc32)cc1: inactive
CC(=O)n1cc(C=O)c2ccccc21: inactive
CCCCCCCCCCCCCCNC(=O)Nc1ccc(Cl)c(Cl)c1: active

Lookup: Entry Clc1ccccc1/C=N\Nc1ccccn1 : call = ?
Found: inactive

Lookup: Entry O=C1/C(=C\c2cccn2Cc2ccccc2)c2ccccc2N1c1c(Cl)cccc1Cl : call = ?
Found: inactive

Lookup: Entry COc1ccc(C(=O)CCC(=O)O)cc1 : call = ?
Found: inactive

Lookup: Entry CC1(C(=O)O)CCC(N)(C(=O)O)C1(C)C (centres undefined) : call = ?
Found: inactive
